assayMethodText: total protein half-life in vivo (active degradation + dilution); higher = more stable protein
testSettings: wild type E. coli NCM3722; growth: N-lim chemostat; doubling time 12 h
property: total protein half-life in vivo (h)
Numbers only, in h.

## Input For the sequence shown here, MPHNPIRVVVGPANYFSHPGSFNHLHDFFTDEQLSRAVWIYGKRAIAAAQTKLPPAFGLPGAKHILFRGHCSESDVQQLAAESGDDRSVVIGVGGGALLDTAKALARRLGLPFVAVPTIAATCAAWTPLSVWYNDAGQALHYEIFDDANFMVLVEPEIILNAPQQYLLAGIGDTLAKWYEAVVLAPQPETLPLTVRLGINNAQAIRDVLLNSSEQALSDQQNQQLTQSFCDVVDAIIAGGGMVGGLGDRFTRVAAAHAVHNGLTVLPQTEKFLHGTKVAYGILVQSALLGQDDVLAQLTGAYQRFHLPTTLAELEVDINNQAEIDKVIAHTLRPVESIHYLPVTLTPDTLRAAFKKVESFKA , give the reported total protein half-life in vivo.
## Output 7.78

Taken from the supplement of paper PMC11246515.
